- test-system: CYP1A2 (Homo sapiens, UniProt P05177)
- Sequence (P05177 whole entry): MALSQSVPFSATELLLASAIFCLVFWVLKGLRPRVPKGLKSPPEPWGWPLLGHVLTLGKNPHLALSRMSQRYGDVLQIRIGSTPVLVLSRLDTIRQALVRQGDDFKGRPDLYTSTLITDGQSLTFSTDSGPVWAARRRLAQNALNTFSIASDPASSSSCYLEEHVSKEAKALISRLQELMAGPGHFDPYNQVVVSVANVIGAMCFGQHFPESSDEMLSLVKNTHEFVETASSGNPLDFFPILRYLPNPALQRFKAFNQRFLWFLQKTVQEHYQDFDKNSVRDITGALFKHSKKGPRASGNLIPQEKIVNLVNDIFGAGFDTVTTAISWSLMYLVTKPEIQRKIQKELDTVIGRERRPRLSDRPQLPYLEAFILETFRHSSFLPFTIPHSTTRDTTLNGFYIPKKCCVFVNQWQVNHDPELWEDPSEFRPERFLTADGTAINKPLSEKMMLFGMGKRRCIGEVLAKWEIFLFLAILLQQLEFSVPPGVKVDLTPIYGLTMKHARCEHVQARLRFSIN
- assay-explanation: Inhibition of CYP1A2 in human liver microsomes assessed as phenacetin […] to acetaminophen at 1 uM after 10 mins in presence of NADPH
- Type: ADME
- measurement-setup: liver microsomes, probe phenacetin
Measured inhibition at 10 min, 1 µM, listed per entry.
value-kind: inhibition at 10 min, 1 µM (%)

structure-string: O=C(N[C@H](Cc1c[nH]c2ccccc12)C(=O)Nc1ccncc1)c1ccc(-c2ccc(OCc3ccc(F)cc3F)c(F)c2)cc1F
reported-result: -9
//
structure-string: O=C(N[C@H](Cc1c[nH]c2ccccc12)C(=O)Nc1ccncc1)c1ccc(N2CCN(c3cccc(C(F)(F)F)c3)CC2)cc1F
reported-result: 10
//
structure-string: O=C(N[C@H](Cc1c[nH]c2ccccc12)C(=O)Nc1ccncc1)c1ccc(-c2ccc(OCc3ccc(F)cc3)c(C(F)(F)F)c2)cc1F
reported-result: -26
//
structure-string: O=C(N[C@H](Cc1c[nH]c2ccccc12)C(=O)Nc1ccncc1)c1ccc(-c2ccc(C(F)(F)F)c(F)c2)cc1F
reported-result: -4

* * *

Each item that follows carries a reported inhibition at 10 min, 1 µM.
- test-system: CYP2D6 (Homo sapiens, UniProt P10635)
- Sequence (P10635 whole entry): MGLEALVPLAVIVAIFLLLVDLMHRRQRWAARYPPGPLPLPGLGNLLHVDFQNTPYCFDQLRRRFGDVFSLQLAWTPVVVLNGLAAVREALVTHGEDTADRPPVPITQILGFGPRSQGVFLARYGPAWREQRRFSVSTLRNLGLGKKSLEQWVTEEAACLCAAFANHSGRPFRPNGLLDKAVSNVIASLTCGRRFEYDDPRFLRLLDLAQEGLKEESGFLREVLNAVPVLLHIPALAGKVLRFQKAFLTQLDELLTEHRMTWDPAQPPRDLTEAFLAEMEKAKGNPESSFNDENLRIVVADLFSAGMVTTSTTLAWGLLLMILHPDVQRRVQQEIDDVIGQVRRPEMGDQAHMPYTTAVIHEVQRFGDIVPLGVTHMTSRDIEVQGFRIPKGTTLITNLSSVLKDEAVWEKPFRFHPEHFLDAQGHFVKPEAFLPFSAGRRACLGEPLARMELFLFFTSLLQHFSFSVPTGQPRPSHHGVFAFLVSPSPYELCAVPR
- assay-explanation: Inhibition of CYP2D6 in human liver microsomes assessed as bufuralol hydroxylation to 4'-hydroxybufuralol at 1 uM after 10 mins in presence of NADPH
- Assay type: ADME
- measurement-setup: liver microsomes, probe bufuralol

structure-string: O=C(N[C@H](Cc1c[nH]c2ccccc12)C(=O)Nc1ccncc1)c1ccc(-c2ccc(OCc3ccc(F)cc3)c(C(F)(F)F)c2)cc1F
inhibition at 10 min, 1 µM, %: -17
//
structure-string: O=C(N[C@H](Cc1c[nH]c2ccccc12)C(=O)Nc1ccncc1)c1ccc(-c2ccc(C(F)(F)F)c(F)c2)cc1F
inhibition at 10 min, 1 µM, %: 27
//
structure-string: O=C(N[C@H](Cc1c[nH]c2ccccc12)C(=O)Nc1ccncc1)c1ccc(N2CCN(c3cccc(C(F)(F)F)c3)CC2)cc1F
inhibition at 10 min, 1 µM, %: 74
//
structure-string: O=C(N[C@H](Cc1c[nH]c2ccccc12)C(=O)Nc1ccncc1)c1ccc(-c2ccc(OCc3ccc(F)cc3F)c(F)c2)cc1F
inhibition at 10 min, 1 µM, %: 21

* * *

- assay-explanation: Half life in rat liver microsomes at 1 uM by LC-MS/MS analysis in presence of NADPH
- Format: ADME
- measurement-setup: liver microsomes
Label criterion met when half-life at 1 µM < 40 min; otherwise criterion not met.

structure-string: O=C(N[C@H](Cc1c[nH]c2ccccc12)C(=O)Nc1ccncc1)c1ccc(-c2ccc(OCc3ccc(F)cc3F)c(F)c2)cc1F
group: criterion met
--
structure-string: O=C(N[C@H](Cc1c[nH]c2ccccc12)C(=O)Nc1ccncc1)c1ccc(N2CCN(c3cccc(C(F)(F)F)c3)CC2)cc1F
group: criterion met
--
structure-string: O=C(N[C@H](Cc1c[nH]c2ccccc12)C(=O)Nc1ccncc1)c1ccc(-c2ccc(OCc3ccc(F)cc3)c(C(F)(F)F)c2)cc1F
group: criterion not met
--
structure-string: O=C(N[C@H](Cc1c[nH]c2ccccc12)C(=O)Nc1ccncc1)c1ccc(-c2cccc(F)c2)cc1F
group: criterion met

* * *

- test-system: CYP3A4 (Homo sapiens, UniProt P08684)
- Sequence (P08684 whole entry): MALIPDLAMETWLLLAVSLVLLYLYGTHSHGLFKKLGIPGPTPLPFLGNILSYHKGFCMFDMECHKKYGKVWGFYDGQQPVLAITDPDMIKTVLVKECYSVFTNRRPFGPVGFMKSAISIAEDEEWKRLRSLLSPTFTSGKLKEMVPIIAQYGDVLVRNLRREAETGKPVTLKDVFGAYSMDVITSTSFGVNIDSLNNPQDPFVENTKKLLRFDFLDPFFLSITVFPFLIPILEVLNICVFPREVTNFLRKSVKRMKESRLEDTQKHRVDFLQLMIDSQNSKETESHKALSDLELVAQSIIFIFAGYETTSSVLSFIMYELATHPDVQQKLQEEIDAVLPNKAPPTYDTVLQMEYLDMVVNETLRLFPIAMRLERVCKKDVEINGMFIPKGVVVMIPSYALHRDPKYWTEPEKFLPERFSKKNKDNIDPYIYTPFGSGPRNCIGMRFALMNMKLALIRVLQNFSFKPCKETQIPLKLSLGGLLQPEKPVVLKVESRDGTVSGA
- assay-explanation: Inhibition of CYP3A4 in human liver microsomes assessed as midazolam hydroxylation to 1'-hydroxymidazolam at 1 uM after 10 mins in presence of NADPH
- Assay type: ADME
- measurement-setup: liver microsomes, probe midazolam

structure-string: O=C(N[C@H](Cc1c[nH]c2ccccc12)C(=O)Nc1ccncc1)c1ccc(-c2ccc(C(F)(F)F)c(F)c2)cc1F
test-system: CYP3A4 (Homo sapiens, UniProt P08684)
inhibition at 10 min, 1 µM (%): 24

structure-string: O=C(N[C@H](Cc1c[nH]c2ccccc12)C(=O)Nc1ccncc1)c1ccc(N2CCN(c3cccc(C(F)(F)F)c3)CC2)cc1F
test-system: CYP3A4 (Homo sapiens, UniProt P08684)
inhibition at 10 min, 1 µM (%): 86

structure-string: O=C(N[C@H](Cc1c[nH]c2ccccc12)C(=O)Nc1ccncc1)c1ccc(-c2ccc(OCc3ccc(F)cc3)c(C(F)(F)F)c2)cc1F
test-system: CYP3A4 (Homo sapiens, UniProt P08684)
inhibition at 10 min, 1 µM (%): 15

structure-string: O=C(N[C@H](Cc1c[nH]c2ccccc12)C(=O)Nc1ccncc1)c1ccc(-c2ccc(OCc3ccc(F)cc3F)c(F)c2)cc1F
test-system: CYP3A4 (Homo sapiens, UniProt P08684)
inhibition at 10 min, 1 µM (%): 38

* * *

- test-system: CYP2C9 (Homo sapiens)
- Sequence (P11712 whole entry): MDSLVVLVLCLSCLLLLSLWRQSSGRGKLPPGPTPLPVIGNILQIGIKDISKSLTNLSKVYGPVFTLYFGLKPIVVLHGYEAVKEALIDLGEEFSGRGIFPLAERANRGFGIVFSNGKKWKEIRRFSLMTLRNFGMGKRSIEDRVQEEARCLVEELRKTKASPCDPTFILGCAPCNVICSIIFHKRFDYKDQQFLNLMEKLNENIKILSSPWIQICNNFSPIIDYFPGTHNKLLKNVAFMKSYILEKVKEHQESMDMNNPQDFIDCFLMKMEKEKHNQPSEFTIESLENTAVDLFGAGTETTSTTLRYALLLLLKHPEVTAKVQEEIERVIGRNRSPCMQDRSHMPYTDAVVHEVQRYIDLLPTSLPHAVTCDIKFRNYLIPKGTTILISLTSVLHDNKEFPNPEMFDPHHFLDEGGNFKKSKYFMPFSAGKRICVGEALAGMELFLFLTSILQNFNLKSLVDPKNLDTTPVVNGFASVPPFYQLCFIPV
- assay-explanation: Inhibition of CYP2C9 in human liver microsomes assessed as tolbutamide hydroxylation to hydroxytolbutamide at 1 uM after 10 mins in presence of NADPH
- Assay type: ADME
- measurement-setup: liver microsomes, probe tolbutamide

structure-string: O=C(N[C@H](Cc1c[nH]c2ccccc12)C(=O)Nc1ccncc1)c1ccc(-c2ccc(OCc3ccc(F)cc3F)c(F)c2)cc1F
inhibition at 10 min, 1 µM, %: 84

structure-string: O=C(N[C@H](Cc1c[nH]c2ccccc12)C(=O)Nc1ccncc1)c1ccc(N2CCN(c3cccc(C(F)(F)F)c3)CC2)cc1F
inhibition at 10 min, 1 µM, %: 96

structure-string: O=C(N[C@H](Cc1c[nH]c2ccccc12)C(=O)Nc1ccncc1)c1ccc(-c2ccc(C(F)(F)F)c(F)c2)cc1F
inhibition at 10 min, 1 µM, %: 92

structure-string: O=C(N[C@H](Cc1c[nH]c2ccccc12)C(=O)Nc1ccncc1)c1ccc(-c2ccc(OCc3ccc(F)cc3)c(C(F)(F)F)c2)cc1F
inhibition at 10 min, 1 µM, %: 41

* * *

- assay-explanation: Half life in human liver microsomes at 1 uM by LC-MS/MS analysis in presence of NADPH
- Type: ADME
- measurement-setup: liver microsomes
Listing of recorded half-life at 1 µM by entry.
value-kind: half-life at 1 µM

structure-string: O=C(N[C@H](Cc1c[nH]c2ccccc12)C(=O)Nc1ccncc1)c1ccc(N2CCN(c3cccc(C(F)(F)F)c3)CC2)cc1F
value-kind: half-life at 1 µM
reported-result: 8 min

structure-string: O=C(N[C@H](Cc1c[nH]c2ccccc12)C(=O)Nc1ccncc1)c1ccc(-c2ccc(OCc3ccc(F)cc3F)c(F)c2)cc1F
value-kind: half-life at 1 µM
reported-result: 25 min

structure-string: O=C(N[C@H](Cc1c[nH]c2ccccc12)C(=O)Nc1ccncc1)c1ccc(-c2ccc(OCc3ccc(F)cc3)c(C(F)(F)F)c2)cc1F
value-kind: half-life at 1 µM
reported-result: 29 min

structure-string: O=C(N[C@H](Cc1c[nH]c2ccccc12)C(=O)Nc1ccncc1)c1ccc(-c2ccc(C(F)(F)F)c(F)c2)cc1F
value-kind: half-life at 1 µM
reported-result: 45 min

* * *

Entries annotated with measured half-life at 1 µM
- assay-explanation: Half life in mouse liver microsomes at 1 uM by LC-MS/MS analysis in presence of NADPH
- Type: ADME
- measurement-setup: liver microsomes
value-kind: half-life at 1 µM

structure-string: O=C(N[C@H](Cc1c[nH]c2ccccc12)C(=O)Nc1ccncc1)c1ccc(-c2ccc(OCc3ccc(F)cc3)c(C(F)(F)F)c2)cc1F
reported-result: 51 min
//
structure-string: O=C(N[C@H](Cc1c[nH]c2ccccc12)C(=O)Nc1ccncc1)c1ccc(N2CCN(c3cccc(C(F)(F)F)c3)CC2)cc1F
reported-result: 11 min
//
structure-string: O=C(N[C@H](Cc1c[nH]c2ccccc12)C(=O)Nc1ccncc1)c1ccc(-c2ccc(OCc3ccc(F)cc3F)c(F)c2)cc1F
reported-result: 34 min
//
structure-string: O=C(N[C@H](Cc1c[nH]c2ccccc12)C(=O)Nc1ccncc1)c1ccc(-c2ccc(C(F)(F)F)c(F)c2)cc1F
reported-result: 69 min
